Would you kindly list CC50 at 72 h for each of these molecules?
test: Cytotoxicity evaluation, MTT; format: cell-based, human; conditions: human
Give the value; after it, write the unit.

May I ask what CC50 at 72 h has been recorded for `COc1ccc2cc(-c3ccc(CNCCCN(C)C)cc3)nc(-c3ccc(CNCCCN(C)C)cc3)c2c1` ? 2.12 µM

May I ask what CC50 at 72 h has been recorded for `COc1ccc2nc(-c3ccc(CNCCN(C)C)cc3)nc(-c3ccc(CNCCN(C)C)cc3)c2c1` ? 3.12 µM

May I ask what CC50 at 72 h has been recorded for `c1ccc2c(-c3ccc(CNCCN4CCOCC4)cc3)nc(-c3ccc(CNCCN4CCOCC4)cc3)nc2c1` ? 4.08 µM

May I ask what CC50 at 72 h has been recorded for `COc1ccc2c(-c3ccc(CNCCN(C)C)cc3)nc(-c3ccc(CNCCN(C)C)cc3)nc2c1` ? 1.14 µM

May I ask what CC50 at 72 h has been recorded for `CN1CCN(CCCCNCc2ccc(-c3cc4ccccc4c(-c4ccc(CNCCCCN5CCN(C)CC5)cc4)n3)cc2)CC1` ? 4.98 µM

May I ask what CC50 at 72 h has been recorded for `CN(C)CCCNCc1ccc(-c2cc(-c3ccc(CNCCCN(C)C)cc3)c3ccccc3n2)cc1` ? 4.09 µM

May I ask what CC50 at 72 h has been recorded for `CN(C)CCCCNCc1ccc(-c2nc(-c3ccc(CNCCCCN(C)C)cc3)c3ccccc3n2)cc1` ? 4.23 µM

May I ask what CC50 at 72 h has been recorded for `CN(C)CCCNCc1cccc(-c2cc(-c3cccc(CNCCCN(C)C)c3)c3ccccc3n2)c1` ? 6.74 µM

May I ask what CC50 at 72 h has been recorded for `COc1ccc2c(-c3ccc(CNCCCN(C)C)cc3)nc(-c3ccc(CNCCCN(C)C)cc3)nc2c1` ? 2.71 µM

May I ask what CC50 at 72 h has been recorded for `COc1ccc2c(-c3ccc(CNCCN4CCN(C)CC4)cc3)nc(-c3ccc(CNCCN4CCN(C)CC4)cc3)nc2c1` ? 3.9 µM

May I ask what CC50 at 72 h has been recorded for `COc1ccc2nc(-c3ccc(CNCCCN4CCN(C)CC4)cc3)nc(-c3ccc(CNCCCN4CCN(C)CC4)cc3)c2c1` ? 22.6 µM

May I ask what CC50 at 72 h has been recorded for `c1cc(CNCCN2CCOCC2)cc(-c2nc(-c3cccc(CNCCN4CCOCC4)c3)c3ccccc3n2)c1` ? 6.46 µM

May I ask what CC50 at 72 h has been recorded for `CN(C)CCCNCc1ccc(-c2nc(-c3ccc(CNCCCN(C)C)cc3)c3ccccc3n2)cc1` ? 4.01 µM

May I ask what CC50 at 72 h has been recorded for `COc1ccc2c(-c3ccc(CNCCCN4CCN(C)CC4)cc3)nc(-c3ccc(CNCCCN4CCN(C)CC4)cc3)cc2c1` ? 2.01 µM

May I ask what CC50 at 72 h has been recorded for `COc1ccc2cc(-c3ccc(CNCCCCN(C)C)cc3)nc(-c3ccc(CNCCCCN(C)C)cc3)c2c1` ? 9.57 µM
